Values from patent US5948808A

Quick reference: activity at 50 µM of the listed items.
# System: MCF-7 cells
# test-protocol: Effect of compounds on MCF-7 proliferation (E2-induced growth)
# Assay type: cell-based
# condition-description: Homo sapiens, MCF7, 144 h; 50 μM, with E2 (1 nM), 6 days; read-out: % of E2-Induced Response (Conc. of I3C Analogs)
parameter: activity at 50 µM (%)

>>> quantitative_result("OCc1c[nH]c2ccccc12 [I3C, indole 3-carbinol, reference compound]")
36.9
>>> quantitative_result("Cn1cc(CO)c2ccccc21 [N-Methyl-I3C, N-methyl-indole-3-carbinol]")
14.4
>>> quantitative_result("OCc1c[nH]c2ccc(Cl)cc12 [5-Chloro-I3C, 5-chloro-indole-3-carbinol]")
29.8
>>> quantitative_result("Cc1ccc2[nH]cc(CO)c2c1 [5-Methyl-I3C, 5-methyl-indole-3-carbinol]")
0.87

----------
# System: MCF-7 cells
# test-protocol: Effect of compounds on MCF-7 proliferation (E2-induced growth)
# Assay type: cell-based
# condition-description: Homo sapiens, MCF7, 144 h; 1 μM, with E2 (1 nM), 6 days; read-out: % of E2-Induced Response (Conc. of I3C Analogs)
parameter: activity at 1 µM (%)

>>> quantitative_result("Cc1c(CO)c2ccccc2n1C")
94.4
>>> quantitative_result("COc1ccc2[nH]cc(CO)c2c1")
78.4
>>> quantitative_result("O=[N+]([O-])c1ccc2[nH]cc(CO)c2c1")
92.7
>>> quantitative_result("Cn1cc(CO)c2ccccc21")
96.2
>>> quantitative_result("Cc1ccc2[nH]cc(CO)c2c1")
81.6
>>> quantitative_result("OCc1c[nH]c2ccc(Cl)cc12")
92.4
>>> quantitative_result("OCc1c[nH]c2ccc(Br)cc12")
97.3
>>> quantitative_result("OCc1c[nH]c2ccccc12 [I3C, indole 3-carbinol, reference compound]")
96.3
